Provenance of the data: patent US20240317847A1

- MEASUREMENT TARGET: T1, human IL-11 (human, UniProt P20809 22-199)
- T1 sequence: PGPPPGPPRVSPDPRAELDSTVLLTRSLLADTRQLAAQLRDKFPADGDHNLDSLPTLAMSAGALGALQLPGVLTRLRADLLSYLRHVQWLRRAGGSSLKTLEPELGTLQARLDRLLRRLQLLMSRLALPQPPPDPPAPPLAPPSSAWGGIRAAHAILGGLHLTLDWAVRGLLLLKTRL
- TEST PROTOCOL: cell-based or functional assay
Is RGA Efficacy (%) at least 60%? Then yes. If not, no.

BINDER	ANSWER LABEL
TPP-26308 (antibody, V domains shown) VH: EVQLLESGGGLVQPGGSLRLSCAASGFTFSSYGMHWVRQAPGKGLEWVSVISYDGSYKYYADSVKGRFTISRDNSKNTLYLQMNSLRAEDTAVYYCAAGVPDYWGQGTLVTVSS VL: QSVLTQPPSASGTPGQRVTISCTGSSSNIGAGYDVHWYQQLPGTAPKLLIYSNNERPSGVPDRFSGSKSGTSASLAISGLRSEDEADYYCAAWDVSLNGPVFGGGTKLTVL	yes
TPP-26307 (antibody, V domains shown) VH: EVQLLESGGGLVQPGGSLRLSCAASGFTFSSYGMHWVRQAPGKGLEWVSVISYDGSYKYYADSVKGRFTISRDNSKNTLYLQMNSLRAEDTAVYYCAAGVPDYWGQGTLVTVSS VL: QSVLTQPPSASGTPGQRVTISCTGSSSNIGAGYDVHWYQQLPGTAPKLLIYSNNERPSGVPDRFSGSKSGTSASLAISGLRSEDEADYYCAAWDISLNGPVFGGGTKLTVL	no
TPP-26291 (antibody, V domains shown) VH: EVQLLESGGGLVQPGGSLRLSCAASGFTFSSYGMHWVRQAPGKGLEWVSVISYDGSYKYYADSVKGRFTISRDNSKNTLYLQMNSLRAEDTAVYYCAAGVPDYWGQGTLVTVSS VL: QSVLTQPPSASGTPGQRVTISCTGSSSNIGAGYDVHWYQQLPGTAPKLLIYSNNERPSGVPDRFSGSKSGTSASLAISGLRSEDEADYYCAAWDPSLNGPVFGGGTKLTVL	yes
TPP-26316 (antibody, V domains shown) VH: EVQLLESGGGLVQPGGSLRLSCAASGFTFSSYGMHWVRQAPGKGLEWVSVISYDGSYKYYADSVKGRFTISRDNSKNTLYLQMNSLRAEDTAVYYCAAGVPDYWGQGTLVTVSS VL: QSVLTQPPSASGTPGQRVTISCTGSSSNIGAGYDVHWYQQLPGTAPKLLIYSNNERPSGVPDRFSGSKSGTSASLAISGLRSEDEADYYCAAWDMSLNGPVFGGGTKLTVL	yes
TPP-26328 (antibody, V domains shown) VH: EVQLLESGGGLVQPGGSLRLSCAASGFTFSSYGMHWVRQAPGKGLEWVSVISYDGSYKYYADSVKGRFTISRDNSKNTLYLQMNSLRAEDTAVYYCAATVPDYWGQGTLVTVSS VL: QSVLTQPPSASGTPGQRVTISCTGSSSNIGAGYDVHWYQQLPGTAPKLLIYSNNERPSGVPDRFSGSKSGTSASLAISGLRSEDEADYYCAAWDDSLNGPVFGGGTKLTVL	no
